Field: IC50. Provide a value for each of the compounds that follow.
- experimentalTarget: EGFR exon 20 FQEA Ins A763_V764 (Ba/F3 cells) (Homo sapiens, UniProt P00533, INS763FQEA)
- Construct: expressed in transfected cells; host or cells: Ba/F3 (murine pro-B cells), retroviral transduction, puromycin selection, IL3-independent pool
- Sequence (P00533 with tags, fused parts or gaps INS763FQEA): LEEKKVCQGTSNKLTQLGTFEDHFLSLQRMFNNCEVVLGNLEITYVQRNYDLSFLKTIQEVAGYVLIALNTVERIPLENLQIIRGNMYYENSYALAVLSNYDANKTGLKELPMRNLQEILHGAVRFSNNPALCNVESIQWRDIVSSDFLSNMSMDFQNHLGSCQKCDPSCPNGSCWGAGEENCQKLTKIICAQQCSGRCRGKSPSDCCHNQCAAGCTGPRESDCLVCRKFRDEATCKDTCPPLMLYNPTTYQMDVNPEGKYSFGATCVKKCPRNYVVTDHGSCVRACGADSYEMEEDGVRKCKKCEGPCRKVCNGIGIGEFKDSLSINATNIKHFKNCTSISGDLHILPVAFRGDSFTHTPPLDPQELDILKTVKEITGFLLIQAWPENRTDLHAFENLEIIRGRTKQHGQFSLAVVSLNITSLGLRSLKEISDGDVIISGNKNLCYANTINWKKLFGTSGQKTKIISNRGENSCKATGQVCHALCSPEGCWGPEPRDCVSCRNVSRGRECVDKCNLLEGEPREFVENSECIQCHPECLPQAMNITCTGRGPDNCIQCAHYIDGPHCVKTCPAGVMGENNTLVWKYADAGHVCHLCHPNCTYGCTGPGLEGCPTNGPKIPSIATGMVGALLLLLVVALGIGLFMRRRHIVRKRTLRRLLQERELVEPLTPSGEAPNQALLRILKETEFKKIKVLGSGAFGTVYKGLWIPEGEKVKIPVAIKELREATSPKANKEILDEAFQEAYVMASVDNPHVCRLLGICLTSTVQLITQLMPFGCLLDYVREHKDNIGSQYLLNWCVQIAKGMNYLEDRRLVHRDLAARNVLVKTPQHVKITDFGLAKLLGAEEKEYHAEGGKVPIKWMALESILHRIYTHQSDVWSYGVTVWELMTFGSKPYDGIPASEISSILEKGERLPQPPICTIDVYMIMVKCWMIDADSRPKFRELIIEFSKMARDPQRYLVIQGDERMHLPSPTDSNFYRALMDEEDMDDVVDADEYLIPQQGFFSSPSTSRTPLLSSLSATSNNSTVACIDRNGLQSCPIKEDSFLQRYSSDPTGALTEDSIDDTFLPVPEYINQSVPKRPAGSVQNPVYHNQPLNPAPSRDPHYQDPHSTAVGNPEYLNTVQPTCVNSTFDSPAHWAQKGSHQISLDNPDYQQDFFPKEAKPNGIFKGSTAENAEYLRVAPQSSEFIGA
- procedureDetails: Inhibitor activity on EGFR-dependent cell growth (CellTiter-Glo, 72 h), Ba/F3 EGFR exon 20 FQEA Ins
- Type: cell-based
- conditionSummary: read-out: BaF3 FQEA IC50

COCC[C@H]1CNC(=O)c2c(Nc3cccc(Cl)c3OC)c(-c3ccncn3)n(C)c21 (single isomer, unassigned) [Compound 797]; > 1000 nM
COc1c(Cl)cccc1Nc1c(-c2ccnc(NC(=O)c3cccc(F)c3)n2)[nH]c2c1C(=O)NCC2 [compound 102]; 100 to 1000 nM
Nc1nccc(-c2[nH]c3c(c2Nc2ccc(F)c(F)c2)C(=O)NCC3)n1 [compound 203]; 100 to 1000 nM
CCc1c(F)cccc1Nc1c(-c2ccnc3cnc(OC)nc23)[nH]c2c1C(=O)NCC2 [Compound 791]; 100 to 1000 nM
COc1c(Cl)cccc1Nc1c(-c2ccncc2F)[nH]c2c1C(=O)NC[C@@H]2CC(N)=O [Compound 474]; > 1000 nM
COc1c(Cl)cccc1Nc1c(-c2ccncc2F)[nH]c2c1C(=O)NC[C@H]2C[C@@H]1COCCO1 (single isomer, unassigned) [Compound 483]; 100 to 1000 nM

IC50 measured on COc1c(Cl)cccc1Nc1c(-c2ccnc3cnc(OCCN4CCOCC4)nc23)[nH]c2c1C(=O)NCC2 [compound 506] = 100 to 1000 nM

* * *

- experimentalTarget: EGFR WT (Ba/F3 cells) (Homo sapiens, UniProt P00533)
- Sequence (P00533 25-1210): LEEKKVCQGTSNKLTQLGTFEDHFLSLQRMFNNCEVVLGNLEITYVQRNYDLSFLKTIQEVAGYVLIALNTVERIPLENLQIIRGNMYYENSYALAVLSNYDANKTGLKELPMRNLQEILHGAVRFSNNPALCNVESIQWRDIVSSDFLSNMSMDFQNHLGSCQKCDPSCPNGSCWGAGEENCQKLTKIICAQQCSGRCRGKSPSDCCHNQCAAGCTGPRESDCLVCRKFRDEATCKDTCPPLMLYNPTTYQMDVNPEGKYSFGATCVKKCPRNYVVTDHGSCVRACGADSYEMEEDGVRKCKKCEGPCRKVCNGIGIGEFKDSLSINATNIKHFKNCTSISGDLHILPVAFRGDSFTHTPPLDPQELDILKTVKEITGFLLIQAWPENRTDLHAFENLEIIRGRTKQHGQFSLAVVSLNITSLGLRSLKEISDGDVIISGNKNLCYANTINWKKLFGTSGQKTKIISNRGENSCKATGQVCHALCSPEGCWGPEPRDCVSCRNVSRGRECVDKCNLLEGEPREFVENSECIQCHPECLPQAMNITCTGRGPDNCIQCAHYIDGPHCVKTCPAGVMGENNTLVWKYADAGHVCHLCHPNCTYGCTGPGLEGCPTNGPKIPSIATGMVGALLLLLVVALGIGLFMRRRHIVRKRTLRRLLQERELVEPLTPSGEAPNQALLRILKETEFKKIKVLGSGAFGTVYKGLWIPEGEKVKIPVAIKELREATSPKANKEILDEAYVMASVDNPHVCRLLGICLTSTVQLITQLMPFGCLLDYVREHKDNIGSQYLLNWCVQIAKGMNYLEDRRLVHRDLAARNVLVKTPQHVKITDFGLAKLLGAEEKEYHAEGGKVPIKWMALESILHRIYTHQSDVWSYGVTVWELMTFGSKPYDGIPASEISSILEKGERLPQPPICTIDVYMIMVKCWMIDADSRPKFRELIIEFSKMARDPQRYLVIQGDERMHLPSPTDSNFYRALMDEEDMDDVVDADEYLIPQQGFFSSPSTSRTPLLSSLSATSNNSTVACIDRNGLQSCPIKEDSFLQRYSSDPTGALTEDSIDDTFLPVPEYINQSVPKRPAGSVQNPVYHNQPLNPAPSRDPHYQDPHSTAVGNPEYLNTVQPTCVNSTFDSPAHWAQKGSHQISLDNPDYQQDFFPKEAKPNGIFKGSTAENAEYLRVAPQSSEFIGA
- procedureDetails: Inhibitor activity on EGFR-dependent cell growth (CellTiter-Glo, 72 h), Ba/F3 EGFR WT
- conditionSummary: read-out: BaF3 WT IC50
pIC50: −log10 of the molar value.
Field: pIC50. Provide a value for each of the compounds that follow.

Answered examples (4):
COc1cccc(Nc2c(-c3ccnc(N)n3)[nH]c3c2C(=O)NCC3)c1C; < 6.00
CCOc1ccc2nccc(-c3[nH]c4c(c3Nc3cccc(Cl)c3OC)C(=O)NCC4)c2n1; > 7.00
COc1c(Cl)cccc1Nc1c(-c2ccnc3c(N)noc23)[nH]c2c1C(=O)NCC2; 6.00 to 7.00
COc1nccc(-c2[nH]c3c(c2Nc2cccc(Cl)c2OC)C(=O)NCC3)n1; < 6.00

Moving on to another compound below.
pIC50 measured on `COCCOc1ccc2nccc(-c3[nH]c4c(c3Nc3cccc(Cl)c3OC)C(=O)NCC4)c2n1` = > 7.00

* * *

Field: IC50. Provide a value for each of the compounds that follow.
- experimentalTarget: EGFR exon 20 ASV Ins V769_D770 (Ba/F3 cells) (Homo sapiens, UniProt P00533, INS769ASV)
- Construct: expressed in transfected cells; host or cells: Ba/F3 (murine pro-B cells), retroviral transduction, puromycin selection, IL3-independent pool
- Sequence (P00533 with tags, fused parts or gaps INS769ASV): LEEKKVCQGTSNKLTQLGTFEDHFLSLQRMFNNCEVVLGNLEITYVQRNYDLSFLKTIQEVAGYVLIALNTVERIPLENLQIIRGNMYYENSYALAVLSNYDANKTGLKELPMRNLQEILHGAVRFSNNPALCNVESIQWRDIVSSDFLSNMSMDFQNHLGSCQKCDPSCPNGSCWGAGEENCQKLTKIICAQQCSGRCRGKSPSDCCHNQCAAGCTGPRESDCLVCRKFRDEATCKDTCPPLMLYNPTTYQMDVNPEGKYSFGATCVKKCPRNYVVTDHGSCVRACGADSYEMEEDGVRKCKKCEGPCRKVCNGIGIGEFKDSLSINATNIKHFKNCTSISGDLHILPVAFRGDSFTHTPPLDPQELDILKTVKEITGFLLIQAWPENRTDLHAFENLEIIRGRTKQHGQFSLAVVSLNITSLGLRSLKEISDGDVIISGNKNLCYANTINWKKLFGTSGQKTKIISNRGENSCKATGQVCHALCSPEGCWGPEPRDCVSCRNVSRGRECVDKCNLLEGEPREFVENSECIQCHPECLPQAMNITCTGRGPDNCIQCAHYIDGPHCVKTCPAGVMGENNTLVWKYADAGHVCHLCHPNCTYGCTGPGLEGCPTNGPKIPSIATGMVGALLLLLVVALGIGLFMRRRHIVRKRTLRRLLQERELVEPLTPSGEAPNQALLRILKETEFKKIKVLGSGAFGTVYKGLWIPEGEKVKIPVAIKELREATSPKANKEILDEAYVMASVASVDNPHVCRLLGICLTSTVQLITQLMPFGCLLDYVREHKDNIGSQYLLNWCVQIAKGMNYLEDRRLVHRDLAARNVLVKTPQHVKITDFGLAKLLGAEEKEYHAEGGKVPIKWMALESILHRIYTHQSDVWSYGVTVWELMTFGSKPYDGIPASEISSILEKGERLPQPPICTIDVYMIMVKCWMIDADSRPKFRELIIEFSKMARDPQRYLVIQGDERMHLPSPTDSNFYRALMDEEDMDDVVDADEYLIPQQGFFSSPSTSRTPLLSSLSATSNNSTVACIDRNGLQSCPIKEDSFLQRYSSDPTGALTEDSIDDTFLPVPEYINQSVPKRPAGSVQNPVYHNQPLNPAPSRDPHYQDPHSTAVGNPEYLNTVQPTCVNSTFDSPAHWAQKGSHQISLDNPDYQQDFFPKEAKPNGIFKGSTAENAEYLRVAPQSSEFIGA
- procedureDetails: Inhibitor activity on EGFR-dependent cell growth (CellTiter-Glo, 72 h), Ba/F3 EGFR exon 20 ASV Ins
- Assay type: cell-based
- conditionSummary: read-out: BaF3 ASV IC50

COc1cc2c(-c3[nH]c4c(c3Nc3cccc(Cl)c3OC)C(=O)NCC4)ccnc2cn1 [Compound 772]; > 1000 nM
COc1c(Cl)cccc1Nc1c(-c2ccnc3ccc(OC4(C)COC4)nc23)[nH]c2c1C(=O)NCC2 [Compound 787]; < 100 nM
COc1c(Cl)cccc1Nc1c(-c2ccnc(-c3cnn(C)n3)n2)[nH]c2c1C(=O)NCC2 [compound 543]; 100 to 1000 nM
COc1c(Cl)cccc1Nc1c(-c2ccncc2F)[nH]c2c1C(=O)NC[C@]21CCN(CC(F)(F)F)C1 [compound 818]; 100 to 1000 nM
COc1c(F)cccc1Nc1c(-c2ccnc3ccc(N(C)C)nc23)[nH]c2c1C(=O)NCC2 [Compound 697]; < 100 nM
COc1c(Cl)cccc1Nc1c(-c2ccnc(Nc3cc(C)n(C)n3)n2)[nH]c2c1C(=O)NCC2 [compound 513]; < 100 nM
COc1c(F)cccc1Nc1c(-c2ccnc3ccc(NC(C)(C)C)nc23)[nH]c2c1C(=O)NCC2 [Compound 694]; < 100 nM
COc1ncc2nccc(-c3[nH]c4c(c3Nc3cccc(Cl)c3C)C(=O)NCC4)c2n1 [Compound 793]; < 100 nM
COc1c(Cl)cccc1Nc1c(-c2ccnc(C(F)F)n2)[nH]c2c1C(=O)NCC2 [compound 472]; 100 to 1000 nM
COc1c(F)cccc1Nc1c(-c2ccnc3ccoc23)[nH]c2c1C(=O)NCC2 [Compound 553]; < 100 nM

# batch: return IC50 for each of the 2 compounds below
1. COc1c(Cl)cccc1Nc1c(-c2ccnc3ccc(O[C@H]4CCCOC4)nc23)[nH]c2c1C(=O)NCC2 [compound 741, formic acid]
2. COc1c(Cl)cccc1Nc1c(-c2ccncc2F)[nH]c2c1C(=O)NC[C@H]2CC(=O)N(C)C [Compound 487]

< 100 nM
100 to 1000 nM

# batch: return IC50 for each of the 8 compounds below
1. COc1c(Cl)cc(F)cc1Nc1c(-c2ccnc(C)n2)[nH]c2c1C(=O)NC[C@H]2C[C@@H]1COCCO1 [compound 652]
2. COc1c(Cl)cccc1Nc1c(-c2ccnc3cnc(OCCN(C)C)nc23)[nH]c2c1C(=O)NCC2 [compound 502]
3. COc1c(Cl)cccc1Nc1c(-c2ccncc2F)[nH]c2c1C(=O)NC[C@@]21CCN(C)C1 [compound 816]
4. COCC[C@H]1CNC(=O)c2c1[nH]c(-c1ccnc(C)n1)c2Nc1cccc(F)c1OC [453b]
5. C=CC(=O)N1CCC2(CC1)CNC(=O)c1c2[nH]c(-c2ccncc2F)c1Nc1cccc(Cl)c1F [Compound 586]
6. COc1c(F)cccc1Nc1c(-c2ccncc2F)[nH]c2c1C(=O)NC[C@H]2CC1COC1 [469a]
7. COc1c(Nc2c(-c3ccnc(N)n3)[nH]c3c2C(=O)NCC3)cccc1C(C)=O [compound 728]
8. C=CC(=O)N1CCC2(CC1)CNC(=O)c1c2[nH]c(-c2ccncc2F)c1Nc1cccc(F)c1F [Compound 585]

1. 100 to 1000 nM
2. 100 to 1000 nM
3. 100 to 1000 nM
4. < 100 nM
5. < 100 nM
6. > 1000 nM
7. > 1000 nM
8. < 100 nM

IC50 measured on COc1c(Cl)cccc1Nc1c(-c2ccnc(N)n2)[nH]c2c1C(=O)NC[C@H]2C [186b] = < 100 nM
